B1: RSAD1 (parent)
chain: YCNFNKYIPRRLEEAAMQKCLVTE

Variants of: B1
protocol: protein stability index of a GFP-peptide fusion (GPS, HEK-293T) (PSI 1-6); higher = more stable;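 also: lentivirally expressed fusions sorted by FACS into six bins by GFP to DsRed ratio, PSI derived from sequencing read proportions per bin multiplied by bin number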
assayContext: c terminus: a fixed tail appended
Below, each of the variants is paired with its reported protein stability index value.

# mutantName, protein stability index
data = [
    ("L21Q", 3.19),
    ("N5A", 1.68),
    ("V22K", 2.57),
    ("A15T", 3.34),
    ("F4L", 2.08),
    ("F4Y", 2.23),
    ("R10Y", 2.26),
    ("N3W", 1.96),
    ("N3Q", 2.04),
    ("C2A", 2.33),
    ("N3Y", 1.63),
    ("R10H", 1.94),
    ("R11G", 2.64),
    ("L12G", 2.96),
    ("R10I", 2.39),
    ("E13G", 2.11),
    ("L12H", 2.52),
    ("Y1C", 1.97),
    ("E13Y", 1.88),
    ("P9S", 2.52),
    ("V22I", 2.77),
    ("I8S", 2.37),
]
